- systemUnderTest: factor D (Homo sapiens, UniProt P00746)
- Construct: made in house; host or cells: E. coli
- Sequence (P00746 26-253): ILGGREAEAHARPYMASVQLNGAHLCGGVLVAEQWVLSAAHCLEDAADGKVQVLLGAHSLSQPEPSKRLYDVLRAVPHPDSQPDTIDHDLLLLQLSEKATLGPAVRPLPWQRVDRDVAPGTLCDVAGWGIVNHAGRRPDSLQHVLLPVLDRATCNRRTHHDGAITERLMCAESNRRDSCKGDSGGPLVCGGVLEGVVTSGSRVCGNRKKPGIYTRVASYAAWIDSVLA
- testDetails: factor D inhibition assay of Biological Example 2
- Format: biochemical
readoutType: IC50 (nM)

1. CCc1ccc(-c2cccc([C@@H](C)N)c2F)cc1COc1ccccc1CC(=O)O [Example 282-D] :: 16
2. C[C@@H](N)c1cccc(-c2cc(COc3ccccc3CC(=O)O)cc(N(C)C[C@H]3CCCO3)c2)c1F [Example 216-I] :: 13
3. NCc1ccnc(-c2cc(COc3ccccc3CC(=O)O)cc(OC[C@H]3CCCO3)c2)c1 [Example 138-B] :: 88
4. N[C@H](CO)c1cccc(-c2cc(Cl)cc(COc3ccccc3CC(=O)O)c2)c1 [Example 108-B] :: 7

I. CCOc1cc(COc2ccccc2CC(=O)O)cc(-c2cccc(C(N)CF)c2F)c1 (centres unmarked) [Example 258-C]
II. N#Cc1ccc(CC(=O)O)c(OCc2cccc(-c3cccc(CN)c3)c2)c1 [Example 294-B]
q: Lab note: check whether I or II shows the higher recorded IC50. Label of pick, please.
a: II

1. C[C@@H](N)c1cccc(-c2cc(COc3ccccc3CC(=O)O)cc(OCCN3CCOCC3)c2)c1F [Example 214-A]
2. NCc1cc(-c2cccc(COc3ccccc3CC(=O)O)c2)ccc1F [Example 138-D]
q: Could you tell me which of these two has the smaller IC50 figure? First: 1 Second: 2 Answer by quoting the chosen item's label.
a: 1
(1: 10 nM, 2: 223 nM)

I. Cn1ccc(Nc2cc(C(=O)Nc3ccccc3CC(=O)O)cc(-c3cc(F)cc(CN)c3)c2)n1 [Example 79-C]
II. NC(CCF)c1cccc(-c2cccc(COc3ccccc3CC(=O)O)c2)c1 (centres unmarked) [Example 278-B]
III. C[C@@H](N)c1cccc(-c2cc(COc3ccccc3CC(=O)O)c3cn[nH]c3c2)c1F [Example 211-C]
IV. N[C@H](CCO)c1cccc(-c2cccc(COc3ccccc3CC(=O)O)c2)c1F [Example 190-J]
q: List from greatest to least IC50. Output spec: labels arranged per the requested ranking.
a: II, I, IV, III
